Hey, just so you know, these numbers are from BindingDB's records for doi:10.3109/14756366.2012.719503.

Molecular target: Alpha-glucosidase MAL12 (Saccharomyces cerevisiae (strain ATCC 204508 / S288c), UniProt P53341)
Sequence (P53341 whole entry): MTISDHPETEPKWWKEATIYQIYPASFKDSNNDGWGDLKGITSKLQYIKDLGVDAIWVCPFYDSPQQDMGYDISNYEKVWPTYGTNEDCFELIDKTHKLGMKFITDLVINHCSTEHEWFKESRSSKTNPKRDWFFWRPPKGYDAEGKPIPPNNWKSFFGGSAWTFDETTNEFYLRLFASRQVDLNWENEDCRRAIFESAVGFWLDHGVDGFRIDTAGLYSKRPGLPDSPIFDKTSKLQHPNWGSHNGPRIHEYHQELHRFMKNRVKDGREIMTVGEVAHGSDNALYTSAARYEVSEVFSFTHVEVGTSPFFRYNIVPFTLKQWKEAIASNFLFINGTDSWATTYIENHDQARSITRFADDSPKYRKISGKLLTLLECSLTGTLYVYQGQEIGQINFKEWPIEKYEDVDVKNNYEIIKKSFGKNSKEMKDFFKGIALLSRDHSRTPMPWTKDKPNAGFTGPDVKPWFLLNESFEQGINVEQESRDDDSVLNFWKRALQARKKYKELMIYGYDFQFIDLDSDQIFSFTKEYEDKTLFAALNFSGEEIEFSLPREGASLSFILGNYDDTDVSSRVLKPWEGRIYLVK
Assay: α-glucosidase Inhibitory Activity Assay
Conditions: pH 7; 25 °C
Observed Property: IC50 (µM)
Give the quantity in µM, number only.

Please look up its IC50: COc1cc(C(=O)OC[C@H]2OC3c4c(cc(O)c(OC)c4O)C(=O)OC3[C@@H](O)[C@@H]2O)ccc1O (stereo not given in full) [11-O-vanilloylbergenin (7)]
187

Please look up its IC50: COc1c(O)cc2c(c1O)C1O[C@H](COC(=O)c3ccc(O)c(O)c3)[C@@H](O)[C@H](O)C1OC2=O (stereo not given in full) [11-O-protocatechuoylbergenin (5)]
290

Please look up its IC50: COc1c(O)cc2c(c1O)C1O[C@H](COC(=O)c3ccccc3)[C@@H](O)[C@H](O)C1OC2=O (stereo not given in full) [11-O-benzoylbergenin (2)]
118

Please look up its IC50: COc1ccc(C(=O)OC[C@H]2OC3c4c(cc(O)c(OC)c4O)C(=O)OC3[C@@H](O)[C@@H]2O)cc1 (stereo not given in full) [11-O-p-methoxybenzoylbergenin (4)]
144

Please look up its IC50: COc1c(O)cc2c(c1O)C1O[C@H](COC(=O)c3ccc(O)cc3)[C@@H](O)[C@H](O)C1OC2=O (stereo not given in full) [11-O-p-hydroxybenzoylbergenin (3)]
143

Please look up its IC50: COc1ccc(C(=O)OC[C@H]2OC3c4c(cc(O)c(OC)c4O)C(=O)OC3[C@@H](O)[C@@H]2O)cc1OC (stereo not given in full)
24.6
